%Inh: recorded values
Tested on: ERK4;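 also: KINOMEscan kinase panel screen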
Construct: gene MAPK4
Conditions: concentration: 1 μM,replicates: in singlicate; n = 1
Unit % implied. Number only.

Observe how each entry below is paired with its result.
- Cn1ccc2ncnc(Oc3ccc(NC(=O)Nc4cnn(C(C)(C)C)c4)c(Cl)c3)c21: 1
- Cc1cccc2c(-c3ccncc3)c(-c3ccc(F)cc3)nn12.Cl: 15
- COC(=O)c1cccc(NC(=O)NC2CCN(c3ccnc(NCc4ccc(F)cc4)n3)CC2)c1: 0
- Cn1ccc2ncnc(Oc3ccc(NC(=O)Nc4cccc(C(F)(F)F)c4)c(F)c3)c21: 14
- Cn1cc(-c2cccc3c(N)c(C(N)=O)nnc23)cn1: 0

Let's switch to this molecule now.
# input Record request: %Inh value, item "CCN1CCN(CCCC(=O)Nc2n[nH]c3nc(-c4ccc(O)cc4)c(Br)cc23)CC1"
# output 0
